Target: T1, Dickkopf-1 (DKK-1) (human, UniProt O94907 32-266)
T1 sequence: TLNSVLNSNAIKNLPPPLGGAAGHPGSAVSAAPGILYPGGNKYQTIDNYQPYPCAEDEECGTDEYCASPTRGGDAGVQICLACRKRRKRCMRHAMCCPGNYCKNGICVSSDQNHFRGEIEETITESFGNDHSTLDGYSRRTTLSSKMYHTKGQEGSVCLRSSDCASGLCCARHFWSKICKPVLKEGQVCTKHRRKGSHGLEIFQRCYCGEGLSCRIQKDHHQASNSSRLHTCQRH
Test: ELASA; ELASA: DKK-1 coated at 2 ug/mL, BSA-blocked; aptamer 3.12-100 nM in PBSMT (1x PBS pH 7.4, 5 mM MgCl2, 0.05% Tween 20), 1 h, 25 C
Conditions: protein: commercial; tags: N-terminal His-tag (stated for the selection protein); label: biotin; three-way junction
PROPERTY_MEASURED: pKd
# reply with the number alone; pKd is -log10 of concentration in mol/L

# binder DK2_58t (ssDNA, 3'-amino linker (C6, Spacer 18)) DNA: CGACTCGGTGTACCCGCATAGACCCTGCGTCCGCTGTATGTACACGTAAGCCCTGTCG ; its pKd = 8.44

# binder CGGTGTACCCGCATAGACCCTGCGTCCGCTGTATGTACACGTAAGCCG (ssDNA, 3'-amino linker (C6, Spacer 18)) [DK2_48t] ; its pKd = 8.48

# binder CACGACTCGGAGTGCGTACAGCAAGCACATATGTGCTCTCCCAGAGCGTG (ssDNA, 3'-amino linker (C6, Spacer 18)) [DK4_50t] ; its pKd = 8.21

# binder CCTCGGAGTGCGTACAGCAAGCACATATGTGCTCTCCCAGG (ssDNA, 3'-amino linker (C6, Spacer 18)) [DK4_41t] ; its pKd = 8.25
